Cited source for all entries: patent US20220025029A1

# tested target: T1, natural Fel d1 (Indoor Biotech, #NA-FD1-2) (cat, UniProt P30438 23-92; P30440 18-109)
# T1 construct: Bought natural heterodimeric glycoprotein, chains linked by disulfide bonds; also called nFel d1; nFel d 1
# T1 sequence (P30438 other isoform, or with tags, fused parts or gaps, chain 1 of 2): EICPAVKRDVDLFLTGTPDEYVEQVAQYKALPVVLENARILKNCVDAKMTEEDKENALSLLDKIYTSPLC
# T1 sequence (P30440 18-109, chain 2 of 2): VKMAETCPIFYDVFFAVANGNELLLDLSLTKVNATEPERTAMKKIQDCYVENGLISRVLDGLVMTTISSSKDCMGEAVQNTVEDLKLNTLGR
# assay comment: SPR (Biacore), mAb captured, natural Fel d1 injected, 25 C;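 further: rate constants obtained by fitting association and dissociation phases to a one-to-one binding model, with Kd and half-life derived from those rate constants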
Measured Kd by item
Express the result in nM but write the number alone.

Solved entries:
{"binder": "H4H2607B (antibody, human IgG4, V domains shown, human IgG4 Fc (H4H prefix)) VH: EVQLVESGGGLVKPGGSLRLSCAASGFTFSDYYMNWIRQAPGKGLEWISYLSSSGSATYYADSVKGRFTISRDNAKNSLYLQMNSLRAEDTAVYYCARDGKYNTVAGDYWGQGTTVTVSS VL: DIQLTQSPSSLSASVGDRVTITCRASQGIRNDLGWYQQKPGKAPKRLIYAASSLQSGVPSRFSGSGSGTEFTLTISSLQPEDFATYYCLQHNSYPYTFGQGTKVEIKR", "measured value": 0.307}
{"binder": "H2M1237N (antibody, mouse IgG2, V domains shown, chimeric: human variable domains, mouse IgG2 Fc (H2M prefix)) VH: QVVLVESGGGVVQPGRSLRLSCAASGFTFSSYGMHWVRQAPGKGLEWVAVIWYDGSIKYYADSVKGRFTISRDNSNNTIYLQMNSLRAEDTAVYYCARALIPVAGTDPIFGYWGQGTLVTVSS VL: DIQMTQSPSTLSASVGDRVTITCRASQSVSSWLAWYQQKPGKAPKLLIFKTSGLESGVPFRFSGSGSGTEFTLTISSLQPDDFATYYCQQYNTYSPTFGQGTKVEIK", "measured value": 0.982}
{"binder": "H2M1233N (antibody, mouse IgG2, V domains shown, chimeric: human variable domains, mouse IgG2 Fc (H2M prefix)) VH: QVVLVESGGGVVQPGRSLRLSCAASGFTFSSYGMHWVRQAPGKGLEWVAVIWYDGSNKYYVDSVKGRFTISRDNSNNTIYLQMNSLRAEDTAVYYCARSLIPVAGTDPIFGYWGQGTLVTVSS VL: DIQMTQSPSTLSASVGDRVTITCRASQSVSSWLAWYQQKPGKAPKLLIFKASGLESGVPFRFSGSGSGTEFTLTISSLQPDDFATYYCQQYNTYSPTFGQGTKVEIK", "measured value": 1.4}

Which value of Kd has been reported for H4H2864P (antibody, human IgG4, V domains shown, human IgG4 Fc (H4H prefix)) VH: EVQLVESGGGLAQPGGSLRLSCAASGFTFNNYAMTWVRQAPGKGLDWVSAISDSGRSTFSADSVKGRFTISRDNSKNTLYLQMDSLRAEDTALYYCAKHRNWNYPVFDYWGQGTLVTVSS VL: DIQLTQSPSFLSASVGDRVTITCWASQGISSYLAWYQQKPGKAPKLLIYSASTLQSGVPSRFSGSGSGTEFTLTISSLQPEDFATYYCQQLNSYPFTFGPGTKVDIK in the records? 0.801

Can you handle H2M1236N (antibody, mouse IgG2, V domains shown, chimeric: human variable domains, mouse IgG2 Fc (H2M prefix)) VH: QVQLQESGPGLVKPSETLSLTCTVSGGSISNYYWSWIRQPPGKGLEWIGYIYYSGRTNYNPSLKSRVTISVDTSKNQFSLKLRSVTAADTAVYYCARHRITRTADSFDYWGQGTLVTVSS VL: DIQMTQSPSSLSASVGDRVTITCQASQDITNYLNWYQQKPGKAPKLLIYDASNLETGVPSRFSGSGSGTDFTFTISSLQPEDVATFYCHQYGDLPYTFGQGTKLEIK next? 4.55

What about this binder? H4H2594S (antibody, human IgG4, V domains shown, human IgG4 Fc (H4H prefix)) VH: EVQLVESGGGLVKPGGSLRLSCAASGFTFSDYYMNWIRQAPGKGLEWVSYISSSGSSIYYADSVKGRFTISRDNAKNSLYLLMNSLRAEDTAVYYCARDGKYNSSPGDYWGQGTLVTVSS VL: DIQMTQSPSSLSASVGDRVTIACRASQGISNYLAWFQQKPGKAPKSLIYAASSLQSGVPSKFSGSGSGTDFTLTISSLQPEDFATYYCQQYNSYPLTFGGGTKVEIKR 0.878

Repeat for the following binder: H4H2597B (antibody, human IgG4, V domains shown, human IgG4 Fc (H4H prefix)) VH: EVQLVESGGGLVQPGGSLRLSCAVSGFTFSNYAMNWVRQAPGKGLEWVSVISDSGRSTYYADSVKGRFTISRDNSKNTLYLQMNSLRAEDTAVYFCAKRYNWNLHYFDYWGQGTTVTVSS VL: EIVLTQSPDFQSVTPKEKVTITCRASQSIGGSLHWYQQKPDQSPKLLIKYASQSFSGVPSRFSGSGSGTDFTLTINSLEAEDAATYYCLQSSSLRTFGQGTKVEIKR 0.65
